Test: Cytotoxicity against human MCF cells after 24 hrs by SRB assay
Type: functional, cell-based
// reported IC50 per item
Could you give me the number in nM? Just the number is fine.

Some entries whose results are on file:
[
  {
    "MOLECULAR_STRING": "Brc1ccc(Nc2nn3c(-c4ccncc4)nnc3s2)cc1",
    "IC50 [nM]": 229
  },
  {
    "MOLECULAR_STRING": "CC(=O)Nn1c(S)nnc1-c1ccncc1",
    "IC50 [nM]": 2100
  },
  {
    "MOLECULAR_STRING": "c1ccc(-c2nn3c(-c4ccncc4)nnc3s2)cc1",
    "IC50 [nM]": 1540
  },
  {
    "MOLECULAR_STRING": "Clc1ccc(-c2nn3c(-c4ccncc4)nnc3s2)cc1",
    "IC50 [nM]": 1620
  },
  {
    "MOLECULAR_STRING": "Clc1ccc(-c2nn3c(-c4ccncc4)nnc3s2)c(Cl)c1",
    "IC50 [nM]": 3220
  }
]

Return reported IC50; argument: `S=C(Nc1ccc(Br)cc1)Nn1c(S)nnc1-c1ccncc1`
1590

* * *

Test: Cytotoxicity against human MCF cells after 24 hrs by SRB assay
Type: functional, cell-based
MEASURE: pIC50
Remember the convention: pIC50 equals -log10 of concentration in molar.

Some entries whose results are on file:
[
  {
    "MOLECULE": "COc1ccc(NC(=S)Nn2c(S)nnc2-c2ccncc2)cc1",
    "MEASURED_VALUE": 5.78
  },
  {
    "MOLECULE": "COc1ccc(Nc2nn3c(-c4ccncc4)nnc3s2)cc1",
    "MEASURED_VALUE": 6.67
  },
  {
    "MOLECULE": "S=C(Nc1ccc(Cl)cc1)Nn1c(S)nnc1-c1ccncc1",
    "MEASURED_VALUE": 5.49
  }
]

Return reported pIC50; argument: `Clc1ccccc1-c1nn2c(-c3ccncc3)nnc2s1`
5.66

Return reported pIC50; argument: `Cc1ccc(NC(=S)Nn2c(S)nnc2-c2ccncc2)cc1`
5.66

Return reported pIC50; argument: `Cc1nn2c(-c3ccncc3)nnc2s1`
6.66

Return reported pIC50; argument: `Brc1ccc(C2=Nn3c(nnc3-c3ccncc3)SC2)cc1`
5.64

Return reported pIC50; argument: `c1ccc(C2=Nn3c(nnc3-c3ccncc3)SC2)cc1`
7.10

Return reported pIC50; argument: N#CN=C(NCCCCCCOc1ccc(Cl)cc1)Nc1ccncc1 [CHS-828]
7.74

Return reported pIC50; argument: `Cc1ccc(Nc2nn3c(-c4ccncc4)nnc3s2)cc1`
6.92

Return reported pIC50; argument: `Clc1ccc(Nc2nn3c(-c4ccncc4)nnc3s2)cc1`
5.90

Return reported pIC50; argument: `O=C(Nn1c(S)nnc1-c1ccncc1)c1ccc([N+](=O)[O-])cc1`
5.96

Recorded values, source ChEMBL document CHEMBL3352138.
